# system: Replicase polyprotein 1ab (Severe acute respiratory syndrome coronavirus 2, UniProt P0DTD1)
# run-description: Inhibition of full-length recombinant SARS-CoV-2 3CL protease expressed in Escherichia coli BL21 (DE3) cells using fluorogenic MCA-AVLQSGFR-Lys (Dnp)-Lys-NH2 substrate preincubated for 10 mins followed by substrate addition measured after 5 mins by FRET assay
readout-type: IC50 (nM)
Number only, in nM; omit the unit.

Indicate the recorded IC50 value for this compound: "C/N=c1\nc(-c2ccccc2)n(-c2ccccc2)s1"
302

====

# System: Vero C1008
# run-description: Cytotoxicity against African green monkey Vero E6 cells incubated for 24 hrs by WST-8 assay
# Assay type: toxicity, cell-based
# stated-conditions: chlorocebus sabaeus, vero c1008, 24 h
readout-type: CC50

Worked cases, answers included:
[
  {
    "smiles-record": "C/N=c1\\nc(-c2ccc(F)cc2)n(-c2ccccc2)s1",
    "result": "> 100 µM"
  },
  {
    "smiles-record": "C/N=c1\\nc(-c2ccc(OC)cc2)n(-c2cc(F)c(F)c(F)c2)s1",
    "result": "> 100 µM"
  }
]

Now consider a different molecule.
Indicate the recorded CC50 value for this molecule: "CCOc1ccc(-c2n/c(=N\C)sn2-c2ccc(F)cc2)cc1"
> 100 µM
